- assay_comment: Quantum yield of photorelease of acetic acid (ferrioxalate actinometry, 532 nm laser, LC-UV)
- Format: physicochemical
- experimental_context: Table 2
Reported εΦ (quantum efficiency) is given for each of the following compounds.
value_type: εΦ (quantum efficiency) (M⁻¹ cm⁻¹)

compound: COc1ccc(/C=C/c2cc(C)c3n2[B-](F)(F)[N+]2=C(C)C=C(C)C2=C3COC(C)=O)cc1
units: M⁻¹ cm⁻¹
numeric_readout: 6.0
//
compound: CC(=O)OCC1=C2C(C)=CC(C=Cc3ccccc3)=[N+]2[B-](F)(F)n2c(C=Cc3ccccc3)cc(C)c21
units: M⁻¹ cm⁻¹
numeric_readout: 2.9
//
compound: COc1ccc(/C=C/C2=[N+]3C(=C(COC(C)=O)c4c(C)cc(/C=C/c5ccc(OC)cc5)n4[B-]3(F)F)C(C)=C2)cc1 [Compound 10a]
units: M⁻¹ cm⁻¹
numeric_readout: 2.7
//
compound: CC(=O)OCC1=C2C(C)=CC(C)=[N+]2[B-](F)(F)n2c(C=Cc3ccc(N(C)C)cc3)cc(C)c21
units: M⁻¹ cm⁻¹
numeric_readout: 4.1
